# target-desc: plasma purified human complement protein C3 (human) (UniProt P01024)
# Sequence (P01024 23-667, chain 1 of 2): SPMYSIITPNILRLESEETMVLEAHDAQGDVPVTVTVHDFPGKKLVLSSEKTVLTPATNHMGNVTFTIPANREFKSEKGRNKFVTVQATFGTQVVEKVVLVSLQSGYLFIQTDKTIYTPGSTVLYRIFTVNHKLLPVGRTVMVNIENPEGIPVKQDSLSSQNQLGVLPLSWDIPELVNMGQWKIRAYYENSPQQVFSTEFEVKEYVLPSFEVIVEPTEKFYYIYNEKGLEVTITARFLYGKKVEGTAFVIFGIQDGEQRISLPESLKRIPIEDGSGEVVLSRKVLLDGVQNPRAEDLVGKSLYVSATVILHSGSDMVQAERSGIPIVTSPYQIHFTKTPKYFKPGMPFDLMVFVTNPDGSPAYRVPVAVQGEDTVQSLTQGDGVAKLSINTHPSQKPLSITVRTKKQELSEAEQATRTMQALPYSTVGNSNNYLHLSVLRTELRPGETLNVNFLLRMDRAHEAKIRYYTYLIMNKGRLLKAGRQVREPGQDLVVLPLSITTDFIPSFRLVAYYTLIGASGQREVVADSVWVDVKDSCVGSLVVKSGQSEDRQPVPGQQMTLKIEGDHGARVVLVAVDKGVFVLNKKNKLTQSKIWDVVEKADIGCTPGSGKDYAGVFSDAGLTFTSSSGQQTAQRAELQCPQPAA
# Sequence (P01024 672-1663, chain 2 of 2): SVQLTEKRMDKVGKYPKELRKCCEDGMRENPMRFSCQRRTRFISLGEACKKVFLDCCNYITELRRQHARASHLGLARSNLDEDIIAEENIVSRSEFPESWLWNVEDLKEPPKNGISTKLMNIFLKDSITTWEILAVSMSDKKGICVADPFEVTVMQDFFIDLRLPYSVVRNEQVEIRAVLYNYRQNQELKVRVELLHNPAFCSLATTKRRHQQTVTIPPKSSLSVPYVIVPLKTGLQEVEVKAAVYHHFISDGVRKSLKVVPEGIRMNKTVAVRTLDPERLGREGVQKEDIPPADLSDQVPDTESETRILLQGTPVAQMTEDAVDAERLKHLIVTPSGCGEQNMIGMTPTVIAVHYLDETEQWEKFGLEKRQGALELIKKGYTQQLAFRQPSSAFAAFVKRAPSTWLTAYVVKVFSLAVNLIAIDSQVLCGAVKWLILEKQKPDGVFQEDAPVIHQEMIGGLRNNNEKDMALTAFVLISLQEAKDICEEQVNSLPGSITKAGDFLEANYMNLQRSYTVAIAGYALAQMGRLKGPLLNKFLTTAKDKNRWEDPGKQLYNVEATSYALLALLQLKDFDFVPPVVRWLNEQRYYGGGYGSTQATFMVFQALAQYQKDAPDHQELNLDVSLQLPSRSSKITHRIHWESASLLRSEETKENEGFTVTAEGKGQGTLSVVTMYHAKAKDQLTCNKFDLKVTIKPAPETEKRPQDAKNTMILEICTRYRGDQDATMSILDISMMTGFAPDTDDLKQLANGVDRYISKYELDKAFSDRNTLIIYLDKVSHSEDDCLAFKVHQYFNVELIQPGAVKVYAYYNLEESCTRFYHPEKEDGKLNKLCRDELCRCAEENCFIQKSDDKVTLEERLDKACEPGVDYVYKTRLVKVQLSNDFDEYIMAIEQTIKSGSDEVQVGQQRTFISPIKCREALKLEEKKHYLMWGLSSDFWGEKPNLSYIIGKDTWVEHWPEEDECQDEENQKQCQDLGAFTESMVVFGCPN
# assay-details: cell-based or functional assay
experimental-endpoint: EC50 hC3 cleavage (nM)
I only need the number, in nM, no unit after it.

Solved entries:
[[record]]
binder = "MTSP-1 protease domain Q38H/I41S/D60bT/F60eS/Y60gW/F97D/ins97aV/T98P/F99L/C122S/G151H/Q192E (enzyme) VVGGTDADEGEWPWQVSLHALGHGHSCGASLISPNWLVSAAHCYIDTRGSRWSDPTQWTAFLGLHDQSQRSAPGVQERRLKRIISHPFFNDDVPLDYDIALLELEKPAEYSSMVRPISLPDASHVFPAGKAIWVTGWGHTQYGGTHALILQKGEIRVINQTTCENLLPQQITPRMMCVGFLSGGVDSCEGDSGGPLSSVEADGRIFQAGVVSWGDGCAQRNKPGVYTRLPLFRDWIKENTGV"
measured_result = 11.9

[[record]]
binder = "MTSP-1 protease domain Q38V/I41G/F60eG/Y60gW/D96P/F97N/T98G/F99L/C122S/G151N/Q175L/Q192D (enzyme) VVGGTDADEGEWPWQVSLHALGVGHGCGASLISPNWLVSAAHCYIDDRGGRWSDPTQWTAFLGLHDQSQRSAPGVQERRLKRIISHPFFNPNGLDYDIALLELEKPAEYSSMVRPISLPDASHVFPAGKAIWVTGWGHTQYGGTNALILQKGEIRVINQTTCENLLPQLITPRMMCVGFLSGGVDSCDGDSGGPLSSVEADGRIFQAGVVSWGDGCAQRNKPGVYTRLPLFRDWIKENTGV"
measured_result = 27.4


Alright, here's another binder for you.
// EC50 hC3 cleavage value for MTSP-1 protease domain F97R/ins97aI/T98P/C122S/Q175M/Q192V/D217I (enzyme) VVGGTDADEGEWPWQVSLHALGQGHICGASLISPNWLVSAAHCYIDDRGFRYSDPTQWTAFLGLHDQSQRSAPGVQERRLKRIISHPFFNDRIPFDYDIALLELEKPAEYSSMVRPISLPDASHVFPAGKAIWVTGWGHTQYGGTGALILQKGEIRVINQTTCENLLPQMITPRMMCVGFLSGGVDSCVGDSGGPLSSVEADGRIFQAGVVSWGIGCAQRNKPGVYTRLPLFRDWIKENTGV : 23.6
